Listing of recorded Kd by entry.
biological target: CyPJ (Homo sapiens); test: Surface plasmon resonance (SPR) binding assay; conditions: Biacore 3000, recombinant human CyPJ immobilized on CM5 chip, 20°C, compounds 0.3–10 μM
Sequence (Q9H2H8 whole entry): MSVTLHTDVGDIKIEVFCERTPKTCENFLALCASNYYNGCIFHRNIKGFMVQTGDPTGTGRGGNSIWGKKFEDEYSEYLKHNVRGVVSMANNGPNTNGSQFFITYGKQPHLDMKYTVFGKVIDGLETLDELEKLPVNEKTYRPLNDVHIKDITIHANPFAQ
Give the quantity in nM, number only.

Worked cases, answers included:
COMPOUND SMILES: COc1ccc(NC(=O)c2ccc(COc3ccccc3Br)o2)c(OC)c1
ENDPOINT LABEL: Kd
READOUT NUMBER: 1290
--
COMPOUND SMILES: Cc1cc(NC(=O)C(=O)NCCN2CCN(C(=O)c3ccccc3F)CC2)ccc1Br
ENDPOINT LABEL: Kd
READOUT NUMBER: 242

Look up Kd for this compound: CC(C)OC(=O)c1ccc(NC(=O)c2ccc(COc3ccccc3Cl)o2)cc1
516

====

system: SK-HEP1 HCC cells; test: MTT-based cell proliferation assay, SK-HEP1; design: species or system human; conditions: Table 4, ZX-J-19 derivatives, 48 h
ENDPOINT LABEL: pIC50
Worth noting: pIC50 values are minus log10 of concentrations stated in mol/L.

Consider the following illustrative entries.
COMPOUND: CCCCCCCC(=O)Nc1ccc2nc(-c3ccco3)c(-c3ccco3)nc2c1 [ZX-J-19o]
pIC50: 4.76
--
COMPOUND: CCCC(=O)Nc1ccc2nc(-c3ccccc3)c(-c3ccccc3)nc2c1 [ZX-J-19l]
pIC50: 5.45
--
COMPOUND: O=C(Nc1ccc2nc(-c3ccco3)c(-c3ccco3)nc2c1)c1ccccc1 [ZX-J-19r]
pIC50: 4.73
--
COMPOUND: CC(C)(C)C(=O)Nc1ccc2nc(-c3ccco3)c(-c3ccco3)nc2c1 [ZX-J-19m]
pIC50: 4.11
--
COMPOUND: O=C(Nc1ccc2nc(-c3ccco3)c(-c3ccco3)nc2c1)c1ccccc1Cl [ZX-J-19p]
pIC50: 4.34
--
COMPOUND: CCCC(=O)Nc1ccc2nc(-c3ccco3)c(-c3ccco3)nc2c1 [ZX-J-19n]
pIC50: 4.75
--
COMPOUND: O=C(CCl)Nc1ccc2nc(-c3ccc[nH]3)c(-c3ccc[nH]3)nc2c1 [ZX-J-19v]
pIC50: 3.85
--
COMPOUND: CC(=O)Nc1ccc2nc(-c3ccccc3)c(-c3ccccc3)nc2c1 [ZX-J-19k]
pIC50: 5.12

Returns the measured pIC50 for the input compound. Input: CC(=O)Nc1ccc2nc(-c3ccc[nH]3)c(-c3ccc[nH]3)nc2c1 [ZX-J-19u]
4.85
